tested-system: UniProtKB P08183
Sequence (P08183 whole entry): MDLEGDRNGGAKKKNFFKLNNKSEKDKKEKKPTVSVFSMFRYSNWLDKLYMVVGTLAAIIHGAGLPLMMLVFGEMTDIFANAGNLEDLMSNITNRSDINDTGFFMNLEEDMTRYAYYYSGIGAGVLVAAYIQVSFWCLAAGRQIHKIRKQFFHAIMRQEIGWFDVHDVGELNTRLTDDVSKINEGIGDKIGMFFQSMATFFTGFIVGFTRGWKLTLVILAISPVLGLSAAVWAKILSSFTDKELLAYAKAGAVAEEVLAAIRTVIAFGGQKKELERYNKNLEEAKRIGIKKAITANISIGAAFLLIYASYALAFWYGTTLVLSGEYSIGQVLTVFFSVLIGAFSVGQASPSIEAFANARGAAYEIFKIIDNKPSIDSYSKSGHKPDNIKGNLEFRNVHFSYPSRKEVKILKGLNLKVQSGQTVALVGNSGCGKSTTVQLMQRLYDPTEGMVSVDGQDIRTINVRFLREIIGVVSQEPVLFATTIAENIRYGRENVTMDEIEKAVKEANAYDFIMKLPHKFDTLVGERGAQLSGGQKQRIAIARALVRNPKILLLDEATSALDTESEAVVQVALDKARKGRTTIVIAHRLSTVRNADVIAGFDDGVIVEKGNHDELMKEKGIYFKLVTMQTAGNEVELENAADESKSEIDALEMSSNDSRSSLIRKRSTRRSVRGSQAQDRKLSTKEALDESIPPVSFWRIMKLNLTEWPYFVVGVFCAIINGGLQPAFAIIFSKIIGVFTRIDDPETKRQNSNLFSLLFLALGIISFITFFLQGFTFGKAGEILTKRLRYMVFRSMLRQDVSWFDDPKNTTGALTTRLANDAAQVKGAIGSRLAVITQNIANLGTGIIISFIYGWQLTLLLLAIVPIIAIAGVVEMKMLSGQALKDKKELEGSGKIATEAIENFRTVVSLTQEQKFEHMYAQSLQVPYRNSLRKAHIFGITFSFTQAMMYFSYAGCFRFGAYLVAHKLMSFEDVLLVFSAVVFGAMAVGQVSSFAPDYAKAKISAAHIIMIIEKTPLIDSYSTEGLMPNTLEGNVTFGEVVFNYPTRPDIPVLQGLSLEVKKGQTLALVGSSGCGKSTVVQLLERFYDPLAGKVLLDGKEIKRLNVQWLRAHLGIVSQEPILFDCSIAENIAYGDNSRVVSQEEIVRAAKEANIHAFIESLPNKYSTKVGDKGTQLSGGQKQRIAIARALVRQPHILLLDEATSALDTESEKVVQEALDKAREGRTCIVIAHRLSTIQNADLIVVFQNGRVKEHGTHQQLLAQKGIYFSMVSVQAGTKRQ
protocol-notes: in vitro
experimental-parameters: Mean B- > A Papp, No Inhibitor, substrate 10 μM, 2 hr, n = 3
endpoint: Papp B→A at 2 h, 10 μM (×10⁻⁶ cm/s)

| molecule | endpoint | measurement-units | meas-value |
| --- | --- | --- | --- |
| CN(C)C(=O)C(CCN1CCC(O)(c2ccc(Cl)cc2)CC1)(c1ccccc1)c1ccccc1 [Loperamide] | Papp B→A at 2 h, 10 μM | ×10⁻⁶ cm/s | 15.5 |

====

protocol-notes: MTT viability assay on SMI microtissues after drug exposure
experimental-parameters: human, SMI (small intestinal) microtissues
endpoint: viability at 96 h, 1 µM

| compound | endpoint | meas-value |
| --- | --- | --- |
| Nc1nc2c(ncn2COCCO)c(=O)[nH]1 [Acyclovir] | viability at 96 h, 1 µM | 104% |
| CN/C(=N/CCSCc1nc[nH]c1C)NC#N [Cimetidine] | viability at 96 h, 1 µM | 109% |
| CCCC(=O)Nc1ccc(OCC(O)CNC(C)C)c(C(C)=O)c1 (stereo not drawn) [Acebutolol] | viability at 96 h, 1 µM | 98.5% |
| CCOC(=O)[C@H](CCc1ccccc1)N[C@@H](C)C(=O)N1CCC[C@H]1C(=O)O [Enalapril] | viability at 96 h, 1 µM | 109% |
| C=C[C@H]1C[N@@]2CC[C@H]1C[C@@H]2[C@@H](O)c1ccnc2ccc(OC)cc12 [Quinidine] | viability at 96 h, 1 µM | 99.4% |
| CNC(=C[N+](=O)[O-])NCCSCc1ccc(CN(C)C)o1 [Ranitidine] | viability at 96 h, 1 µM | 102% |
